A set of molecules tested on Receptor-type tyrosine-protein phosphatase F (Homo sapiens), with measured IC50:
measurementType: IC50 (nM)

Record excerpt, results attached:
[
  {
    "smiles": "O=C(O)/C=C/c1cccc(-c2nc(-c3ccc4oc5c(C(=O)O)cccc5c4c3)cs2)c1",
    "systemName": "Receptor-type tyrosine-protein phosphatase F (Homo sapiens)",
    "IC50 (nM)": 2070
  },
  {
    "smiles": "O=C(O)c1cccc2c1oc1ccc(-c3csc(-c4ccc(N5CCOCC5)cc4)n3)cc12",
    "systemName": "Receptor-type tyrosine-protein phosphatase F (Homo sapiens)",
    "IC50 (nM)": 2940
  },
  {
    "smiles": "O=C(O)c1cccc2c1oc1ccc(-c3csc(-c4ccc(N5CCCCC5)cc4)n3)cc12",
    "systemName": "Receptor-type tyrosine-protein phosphatase F (Homo sapiens)",
    "IC50 (nM)": 2070
  },
  {
    "smiles": "O=C(O)c1ccc(-c2nc(-c3ccc4oc5c(C(=O)O)cccc5c4c3)cs2)cc1",
    "systemName": "Receptor-type tyrosine-protein phosphatase F (Homo sapiens)",
    "IC50 (nM)": 3250
  },
  {
    "smiles": "O=C(O)c1cccc2c1oc1ccc(-c3csc(-c4ccc(N5CCCC5)cc4)n3)cc12",
    "systemName": "Receptor-type tyrosine-protein phosphatase F (Homo sapiens)",
    "IC50 (nM)": 2990
  }
]

[a] O=C(O)c1cccc2c1oc1ccc(-c3csc(-c4cccc(I)c4)n3)cc12
[b] CCc1cc(C[C@H]2NC(=O)CN(CCCCOc3cccc(O)c3C(=O)OC)C2=O)ccc1N(C(=O)C(=O)O)c1ccccc1C(=O)O
Ask: Which is greater in IC50, the first item a or the second item b ? Kindly state the label of the option you pick.
Reply: a
(a: 2100 nM, b: 410 nM)
